experimental.details: Clinical pharmacokinetics: plasma CYH33 and I27 by LC/MS/MS
Format: in vivo, human
measurement.conditions: C1D1, 20 mg, 36 h
measure.name: CYH33 plasma concentration, mean (ng/mL)
Only the number, expressed in ng/mL, is required.

For the compound `COC(=O)Nc1cc(C(F)(F)F)c(-c2nc(N3CCOCC3)c3cc(CN4CCN(S(C)(=O)=O)CC4)cn3n2)cn1` , what CYH33 plasma concentration, mean is on record?
23.6

----------
experimental.details: Clinical pharmacokinetics: plasma CYH33 and I27 by LC/MS/MS
Format: in vivo, human
measurement.conditions: human, plasma, oral; C1D1, 20 mg, 12 h
measure.name: concentration at 12 h (µg/mL)
Write it as a number; the unit µg/mL goes unstated.

Look up concentration at 12 h for this compound: COC(=O)Nc1cc(C(F)(F)F)c(-c2nc(N3CCOCC3)c3cc(CN4CCN(S(C)(=O)=O)CC4)cn3n2)cn1 [CYH33]
0.0295
